Ref: ChEMBL document CHEMBL4808254

# target.desc: Cholinesterase (Equus caballus, UniProt P81908)
# Sequence (P81908 whole entry): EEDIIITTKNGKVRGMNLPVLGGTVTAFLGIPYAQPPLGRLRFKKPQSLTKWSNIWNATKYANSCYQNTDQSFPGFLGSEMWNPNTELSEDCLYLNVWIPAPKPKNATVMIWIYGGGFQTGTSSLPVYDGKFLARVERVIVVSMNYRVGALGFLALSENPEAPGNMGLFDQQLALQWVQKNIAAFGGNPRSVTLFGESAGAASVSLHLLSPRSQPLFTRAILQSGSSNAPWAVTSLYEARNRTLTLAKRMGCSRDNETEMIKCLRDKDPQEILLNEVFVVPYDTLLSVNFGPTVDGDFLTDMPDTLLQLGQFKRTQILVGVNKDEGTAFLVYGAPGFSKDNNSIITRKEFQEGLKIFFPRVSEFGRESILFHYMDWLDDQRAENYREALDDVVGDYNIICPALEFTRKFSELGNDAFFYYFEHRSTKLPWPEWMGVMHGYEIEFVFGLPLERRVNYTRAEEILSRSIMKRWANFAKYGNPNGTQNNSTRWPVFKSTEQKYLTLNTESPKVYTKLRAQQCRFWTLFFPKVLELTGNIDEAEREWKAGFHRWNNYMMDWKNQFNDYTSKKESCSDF
# procedure.summary: Inhibition of equine serum BChE using butyrylthiocholine iodide as substrate preincubated with enzyme for 30 mins followed by substrate addition and measured after 30 mins by Ellman's method
IC50 by entry:
Entry rule: numbers only, all in µM.

1) COc1cc(/C=C/C(=O)NCC(=O)NCCc2c[nH]c3ccccc23)ccc1O | 3.14

// IC50 value for `COc1cc(/C=C/C(=O)N2CCN(Cc3ccc(F)cc3)CC2)ccc1O` : 14.8

// IC50 value for `COc1cc(/C=C/C(=O)N2CCN(Cc3ccc(C#N)cc3)CC2)ccc1O` : 15.6

// IC50 value for `COc1cc(/C=C/C(=O)N2CCN(Cc3ccc(C)cc3)CC2)ccc1O` : 14.8

// IC50 value for `COc1cc(/C=C/C(=O)N2CCN(Cc3cccc(C#N)c3)CC2)ccc1O` : 14.7

// IC50 value for `COc1cc(/C=C/C(=O)NCC(=O)NCCc2c[nH]c3ccc(Cl)cc23)ccc1O` : 1.29

// IC50 value for `COc1cc(/C=C/C(=O)N2CCN(Cc3ccccc3C)CC2)ccc1O` : 15.1

// IC50 value for `COc1cc(/C=C/C(=O)N2CCN(Cc3ccccc3C#N)CC2)ccc1O` : 14.9

// IC50 value for `COc1cc(/C=C/C(=O)N2CCN(Cc3cccc([N+](=O)[O-])c3)CC2)ccc1O` : 14.6

// IC50 value for `COc1cc(/C=C/C(=O)N2CCN(Cc3cccc(Cl)c3)CC2)ccc1O` : 14.8

====

# target.desc: Acetylcholinesterase (Homo sapiens)
# Sequence (P22303 whole entry): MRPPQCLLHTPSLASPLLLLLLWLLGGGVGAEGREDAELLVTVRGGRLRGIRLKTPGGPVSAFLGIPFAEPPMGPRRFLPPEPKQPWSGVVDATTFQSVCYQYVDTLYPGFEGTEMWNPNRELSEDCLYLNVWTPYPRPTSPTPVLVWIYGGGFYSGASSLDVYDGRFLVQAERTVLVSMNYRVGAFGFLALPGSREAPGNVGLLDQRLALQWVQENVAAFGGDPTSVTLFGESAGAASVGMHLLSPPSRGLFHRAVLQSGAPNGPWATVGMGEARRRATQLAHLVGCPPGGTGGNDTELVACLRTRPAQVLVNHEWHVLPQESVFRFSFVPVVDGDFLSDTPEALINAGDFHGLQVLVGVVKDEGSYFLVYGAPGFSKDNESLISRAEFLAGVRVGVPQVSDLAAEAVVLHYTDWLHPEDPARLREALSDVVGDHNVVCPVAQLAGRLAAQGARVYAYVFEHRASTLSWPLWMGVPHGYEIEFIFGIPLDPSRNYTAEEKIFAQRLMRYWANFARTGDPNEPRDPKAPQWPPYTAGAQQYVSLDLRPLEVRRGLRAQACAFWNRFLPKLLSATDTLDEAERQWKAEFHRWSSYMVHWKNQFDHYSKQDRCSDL
# procedure.summary: Inhibition of AChE in human erythrocytes using acetylthiocholine iodide as substrate preincubated with enzyme for 30 mins followed by substrate addition and measured after 30 mins by Ellman's method
test.readout: log10 IC50 (log10 of the value in µM)
Lab note - IC50 converted to log10 from values in µM.

Sample records with log10 IC50:
1. COc1cc(/C=C/C(=O)NCC(=O)NCCc2c[nH]c3ccccc23)ccc1O | 0.15
2. COc1cccc(NC(=O)CCNC(=O)/C=C/c2ccc(O)c(OC)c2)c1 | 0.38
3. COc1cccc(CN2CCN(C(=O)/C=C/c3ccc(O)c(OC)c3)CC2)c1 | 1.18
4. COc1cc(/C=C/C(=O)N2CCN(Cc3ccc(F)cc3)CC2)ccc1O | 1.16
5. COc1cc(/C=C/C(=O)N2CCN(Cc3cccc(Cl)c3)CC2)ccc1O | 1.19

// log10 IC50 value for `COc1ccc2[nH]cc(CCNC(=O)CNC(=O)/C=C/c3ccc(O)c(OC)c3)c2c1` : -0.02

// log10 IC50 value for `COc1cc(/C=C/C(=O)NCC(=O)NCCc2c[nH]c3ccc(Cl)cc23)ccc1O` : -0.08

// log10 IC50 value for `COc1cc(/C=C/C(=O)N2CCN(Cc3cccc(F)c3)CC2)ccc1O` : 1.12

// log10 IC50 value for `COc1cc(/C=C/C(=O)NCCC(=O)Nc2ccc(Cl)cc2)ccc1O` : 0.73

// log10 IC50 value for `COc1ccc(CN2CCN(C(=O)/C=C/c3ccc(O)c(OC)c3)CC2)cc1` : 1.21

// log10 IC50 value for `COc1cc(/C=C/C(=O)NCCC(=O)Nc2ccccc2)ccc1O` : 1.17

// log10 IC50 value for `COc1cc(/C=C/C(=O)N2CCN(Cc3ccccc3)CC2)ccc1O` : 1.12
